Property: % of the control fluorescence (nsLTP1-TNS complex); scope: individual molecules
Tested System: fennel nsLTP1 (Anethum foeniculum)
Construct: native mature protein purified from seeds (gel filtration, RP-HPLC); 91 residues, 9433 Da, monomer
Sequence (C0HLP9 1-91): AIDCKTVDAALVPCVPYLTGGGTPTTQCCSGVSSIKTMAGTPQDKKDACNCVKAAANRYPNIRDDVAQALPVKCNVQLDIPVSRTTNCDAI
Procedure Summary: TNS fluorescence displacement
Type: binding
Test Parameters: 3.5 µM TNS, 4 µM nsLTP1, fatty acid 5-20 µM; 175 mM mannitol, 0.5 mM K2SO4, 0.5 mM CaCl2, 5 mM MES pH 7.0, 25 °C; competitive with TNS

Below, each entry is followed by its recorded % of the control fluorescence (nsLTP1-TNS complex) result.
Query: Look up % of the control fluorescence (nsLTP1-TNS complex): CCCCCCCCCCCCCCCC(=O)O
Result: 40–69%

Query: Look up % of the control fluorescence (nsLTP1-TNS complex): CCCCCCCCCCCCCCCCCC(=O)O
Result: 21–59%

Query: Look up % of the control fluorescence (nsLTP1-TNS complex): CC/C=C\C/C=C\C/C=C\CCCCCCCC(=O)O [linolenic acid, all-cis-9,12,15-octadecatrienoic acid]
Result: 7–59%

Now turn to the next molecule.
Query: Look up % of the control fluorescence (nsLTP1-TNS complex): CCCCC/C=C\C/C=C\CCCCCCCC(=O)O [linoleic acid, cis, cis-9,12-Octadecadienoic acid]
Result: 4–40%
